Values compiled from patent US20260176289A1.

So I've got a bunch of compounds here, and I need their pIC50 values.
target: KRAS-G12C (C51S/C80L/C118S) (Homo sapiens, UniProt P01116, C118S/C51S/C80L/G12C); assay: SOS-catalyzed nucleotide exchange assay (Procedure A, TR-FRET), KRAS-G12C; format: biochemical; settings: nucleotide exchange, Procedure A; read-out: KRAS G12C GNE IC50
Sequence (P01116 with tags, fused parts or gaps isoform P01116-2 G12C/C51S/C80L/C118S): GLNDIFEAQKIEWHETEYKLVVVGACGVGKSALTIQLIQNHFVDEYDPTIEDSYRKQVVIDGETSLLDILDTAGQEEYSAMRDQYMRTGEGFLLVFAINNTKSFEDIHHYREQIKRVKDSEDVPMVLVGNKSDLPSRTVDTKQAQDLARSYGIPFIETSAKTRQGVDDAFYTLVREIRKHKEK
Answers are plain numbers, as −log10 of the molar value.

compound	experimentalEndpoint	readoutNumber
C[C@@]1(O)COCCN(c2nc(OC[C@@]34CCCN3C[C@H](F)C4)nc3sc4c(-c5c(C6CC6)c(Cl)cc6[nH]ncc56)nncc4c23)C1 [Ex-280]	pIC50	7.21
Cc1cc2[nH]ncc2c(-c2nccc3c2sc2nc(OC[C@@]45CCCN4C[C@H](F)C5)nc(N4CCOC[C@@](C)(O)C4)c23)c1-c1ccsc1 [Ex-139]	pIC50	6.80
Cc1cc2[nH]ncc2c(-c2nccc3c2sc2nc(OC[C@@]45CCCN4C[C@H](F)C5)nc(NC4COC4)c23)c1C(F)(F)F [Ex-184]	pIC50	7.01

Next up:
input: Return reported pIC50; argument: C=C1CN2C[C@H](F)C[C@@]2(COc2nc(N3CCOC[C@@](C)(O)C3)c3c(n2)sc2c(-c4c(C5CC5)c(Cl)cc5[nH]ncc45)nccc23)C1 [Ex-223]
output: 6.95
